assay-system: EGF-receptor-specific tyrosine protein kinase (EGF-R-PTK; EGF-R ICD) (Homo sapiens)
Construct: recombinant intracellular domain of the EGF receptor
Sequence (P00533 669-1210 limits assumed): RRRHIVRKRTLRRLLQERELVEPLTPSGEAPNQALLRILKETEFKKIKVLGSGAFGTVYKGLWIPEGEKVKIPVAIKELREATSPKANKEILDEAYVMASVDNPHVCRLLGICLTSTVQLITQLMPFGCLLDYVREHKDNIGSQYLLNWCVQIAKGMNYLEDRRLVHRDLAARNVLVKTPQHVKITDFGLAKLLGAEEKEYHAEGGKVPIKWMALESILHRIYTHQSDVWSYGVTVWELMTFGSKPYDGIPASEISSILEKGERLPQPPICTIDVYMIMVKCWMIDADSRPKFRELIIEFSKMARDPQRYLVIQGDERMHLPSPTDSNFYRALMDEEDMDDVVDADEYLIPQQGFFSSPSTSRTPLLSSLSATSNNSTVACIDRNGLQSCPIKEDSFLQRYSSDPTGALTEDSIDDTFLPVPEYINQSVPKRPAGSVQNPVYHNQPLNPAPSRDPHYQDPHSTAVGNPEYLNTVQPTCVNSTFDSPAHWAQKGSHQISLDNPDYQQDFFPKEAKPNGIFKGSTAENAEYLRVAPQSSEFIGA
experimental-details: Inhibition of the EGF-receptor-specific tyrosine kinase (recombinant intracellular domain of the EGF receptor)
measurement-label: IC50 (µM)
Answers are plain numbers, in µM.

Record excerpt, results attached:
Cc1[nH]c2ncnc(N3CCc4ccccc43)c2c1C    1.56
Cc1[nH]c2ncnc(N3CCCc4ccccc43)c2c1C    2.69
Nc1ccc(-c2cc3c(N4CCCc5ccccc54)ncnc3[nH]2)cc1    0.026

Provide only the value of recorded IC50 for "Nc1ccc(-c2cc3c(N4CCc5ccccc54)ncnc3[nH]2)cc1"
0.21

###

assay-system: v-abl kinase (Abelson murine leukemia virus, UniProt P00521)
Sequence (P00521 whole entry): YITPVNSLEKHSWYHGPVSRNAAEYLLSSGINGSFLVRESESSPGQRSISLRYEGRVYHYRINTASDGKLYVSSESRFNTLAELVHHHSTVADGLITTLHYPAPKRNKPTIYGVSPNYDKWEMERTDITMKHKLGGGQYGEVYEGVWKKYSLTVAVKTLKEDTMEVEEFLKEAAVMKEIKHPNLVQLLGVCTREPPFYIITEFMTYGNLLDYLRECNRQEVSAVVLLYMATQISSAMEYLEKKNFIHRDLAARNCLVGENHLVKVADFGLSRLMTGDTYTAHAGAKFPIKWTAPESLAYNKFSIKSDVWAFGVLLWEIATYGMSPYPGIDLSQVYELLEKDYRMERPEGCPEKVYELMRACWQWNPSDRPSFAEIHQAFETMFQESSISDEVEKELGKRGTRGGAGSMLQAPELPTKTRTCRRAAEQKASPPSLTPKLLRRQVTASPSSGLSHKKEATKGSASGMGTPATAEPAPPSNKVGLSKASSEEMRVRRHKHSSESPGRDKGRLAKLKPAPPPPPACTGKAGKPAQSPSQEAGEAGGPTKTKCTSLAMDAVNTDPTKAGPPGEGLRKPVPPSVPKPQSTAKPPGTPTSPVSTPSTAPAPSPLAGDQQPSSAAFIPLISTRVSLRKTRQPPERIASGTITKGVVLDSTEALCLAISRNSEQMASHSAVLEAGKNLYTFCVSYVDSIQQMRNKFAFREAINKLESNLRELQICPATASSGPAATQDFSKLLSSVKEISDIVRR
experimental-details: Inhibition of the v-abl kinase ([Val5]-angiotensin II and [gamma-32P]-ATP as substrates)
test-settings: v-abl tyrosine kinase
Would you kindly list pIC50 for each of these molecules?
Give bare numbers, as −log10 of the molar value.

Nc1ccc(-c2cc3c(N4CCc5ccccc54)ncnc3[nH]2)cc1 [Example 7]    7.11

Next molecule, please.
Identify pIC50 associated with the molecule Nc1ccc(-c2cc3c(N4CCCc5ccccc54)ncnc3[nH]2)cc1 [Example 11]
8.70
